Recorded fold change (FC) for the following compounds
- Measurement notes: Stability of compound assessed as Pepsin (unknown origin) mediated compound degradation by measuring fold change of half-life by HPLC analysis relative to BimBH312-mer peptide
- Type: ADME
- Condition: human
Square brackets hold non-standard residues; d marks the D form. Peptide text beside a SMILES is read from it. * marks the point of attachment. ξ: configuration not given here. C22 diacid = O=C(O)CCCCCCCCCCCCCCCCCCCCC(=O)*; C20 diacid = O=C(O)CCCCCCCCCCCCCCCCCCC(=O)*; C18 diacid = O=C(O)CCCCCCCCCCCCCCCCC(=O)*; Stearoyl = CCCCCCCCCCCCCCCCCC(=O)*; Palmitoyl = CCCCCCCCCCCCCCCC(=O)*; Myristoyl = CCCCCCCCCCCCCC(=O)*; ξR = N=C(N)NCCCC(N)C(=O)O
Number only, no unit.

# example entries with known answers
{"Compound": "CC[C@H](C)[C@H](NC(=O)CCCCCCCCCCCCCCCCCCC(=O)O)C(=O)N[C@@H](C)C(=O)N[C@@H](CCC(N)=O)C(=O)N[C@@H](CCC(=O)O)C(=O)N[C@@H](CC(C)C)C(=O)N[C@@H](CCCNC(=N)N)C(=O)NC(CCCNC(=N)N)C(=O)N[C@H](C(=O)NCC(=O)N[C@@H](CC(=O)O)C(=O)N[C@@H](CCC(=O)O)C(=O)N[C@@H](Cc1ccccc1)C(=O)O)[C@@H](C)CC (stereo partly specified) ({C20 diacid}-IAQELR[ξR]IGDEF-OH)", "Val": 69.1}
{"Compound": "CCCCCCCCCCCCCC(=O)N[C@H](C(=O)N[C@@H](C)C(=O)N[C@@H](CCC(N)=O)C(=O)N[C@@H](CCC(=O)O)C(=O)N[C@@H](CC(C)C)C(=O)N[C@@H](CCCNC(=N)N)C(=O)NC(CCCNC(=N)N)C(=O)N[C@H](C(=O)NCC(=O)N[C@@H](CC(=O)O)C(=O)N[C@@H](CCC(=O)O)C(=O)N[C@@H](Cc1ccccc1)C(=O)O)[C@@H](C)CC)[C@@H](C)CC (stereo partly specified) (Myristoyl-IAQELR[ξR]IGDEF-OH)", "Val": 29.5}
{"Compound": "CC[C@H](C)[C@H](NC(=O)CCCCCCCCCCCCCCCCC(=O)O)C(=O)N[C@@H](C)C(=O)N[C@@H](CCC(N)=O)C(=O)N[C@@H](CCC(=O)O)C(=O)N[C@@H](CC(C)C)C(=O)N[C@@H](CCCNC(=N)N)C(=O)NC(CCCNC(=N)N)C(=O)N[C@H](C(=O)NCC(=O)N[C@@H](CC(=O)O)C(=O)N[C@@H](CCC(=O)O)C(=O)N[C@@H](Cc1ccccc1)C(=O)O)[C@@H](C)CC (stereo partly specified) ({C18 diacid}-IAQELR[ξR]IGDEF-OH)", "Val": 307.7}
{"Compound": "CCCCCCCCCCCCCCCCCC(=O)N[C@H](C(=O)N[C@@H](C)C(=O)N[C@@H](CCC(N)=O)C(=O)N[C@@H](CCC(=O)O)C(=O)N[C@@H](CC(C)C)C(=O)N[C@@H](CCCNC(=N)N)C(=O)NC(CCCNC(=N)N)C(=O)N[C@H](C(=O)NCC(=O)N[C@@H](CC(=O)O)C(=O)N[C@@H](CCC(=O)O)C(=O)N[C@@H](Cc1ccccc1)C(=O)O)[C@@H](C)CC)[C@@H](C)CC (stereo partly specified) (Stearoyl-IAQELR[ξR]IGDEF-OH)", "Val": 334.5}

stdin: State its fold change (FC): CCCCCCCCCCCCCCCC(=O)N[C@H](C(=O)N[C@@H](C)C(=O)N[C@@H](CCC(N)=O)C(=O)N[C@@H](CCC(=O)O)C(=O)N[C@@H](CC(C)C)C(=O)N[C@@H](CCCNC(=N)N)C(=O)N[C@@H](CCCNC(=N)N)C(=O)N[C@H](C(=O)NCC(=O)N[C@@H](CC(=O)O)C(=O)N[C@@H](CCC(=O)O)C(=O)N[C@@H](Cc1ccccc1)C(=O)O)[C@@H](C)CC)[C@@H](C)CC (Palmitoyl-IAQELRRIGDEF-OH)
stdout: 122.7

stdin: State its fold change (FC): CC[C@H](C)[C@H](NC(=O)CCCCCCCCCCCCCCCCCCCCC(=O)O)C(=O)N[C@@H](C)C(=O)N[C@@H](CCC(N)=O)C(=O)N[C@@H](CCC(=O)O)C(=O)N[C@@H](CC(C)C)C(=O)N[C@@H](CCCNC(=N)N)C(=O)NC(CCCNC(=N)N)C(=O)N[C@H](C(=O)NCC(=O)N[C@@H](CC(=O)O)C(=O)N[C@@H](CCC(=O)O)C(=O)N[C@@H](Cc1ccccc1)C(=O)O)[C@@H](C)CC (stereo partly specified) ({C22 diacid}-IAQELR[ξR]IGDEF-OH)
stdout: 64.1
